# Tested on: BT-549 breast
# protocol_description: NCI tumour cell line growth inhibition, 48 h
Where a SMILES comes first, the peptide text is derived from it. The star is where a group is joined. Cbz = O=C(OCc1ccccc1)*
quantity: TGI

Examples from the recorded data:
INSERT INTO measurements (molecule, measured_target, value_observed) VALUES
  ('N#Cc1c(-c2ccc(Cl)cc2)c(C#N)c(=O)n(NS(=O)(=O)c2ccccc2)c1O', 'BT-549 breast', '32.8 µM'),
  ('CC(C)=CCc1cc(O)cc2c1OC(C=C(C)C)C1=C2C(=O)C2=C(C1=O)S(=O)(=O)CCN2 (configuration not stated)', 'BT-549 breast', '> 16.7 µM'),
  ('CCOC(=O)Cc1ccc(Nc2nc3ccccc3nc2C(=O)OCC)cc1', 'BT-549 breast', '> 100 µM'),
  ('BrCc1cccc(C[P+](c2ccccc2)(c2ccccc2)c2ccccc2)c1', 'BT-549 breast', '> 100 µM'),
  ('O=c1[nH]c2ccc(O)cc2o1', 'BT-549 breast', '> 100 µM'),
  ('COc1ccc(C(O)(CCC(C)C)C(CN2CCOCC2)c2ccc(Cl)cc2)cc1 (configuration not stated)', 'BT-549 breast', '30 µM'),
  ('CC(NC(=O)C(NC(=O)OCc1ccccc1)C(C)C)C(=O)NCC(=O)O (stereo not drawn) (Cbz-Val-Ala-Gly-OH; configuration not given here)', 'BT-549 breast', '> 100 µM'),
  ('COc1ccc(C[C@H]2COC(=O)[C@@H]2Cc2cccc(Br)c2)cc1OC', 'BT-549 breast', '61.2 µM'),
  ('CN(C)c1ccc(N=Nc2ccccn2)c(O)c1', 'BT-549 breast', '> 100 µM'),
  ('C=C1CC/C=C(\C)CCC[C@H](C)[C@@H](O)[C@@H]2OC(=O)C(=C)[C@@H]2C[C@H]1O', 'BT-549 breast', '3 µM');

Consider the record given below.
Given item Oc1ccc2ccccc2c1N=Nc1ccc(Br)cc1 , the value recorded as its TGI is > 100 µM

---

Entries and their GI50 values follow.
# Test system: SK-OV-3 ovarian
# protocol_description: NCI tumour cell line growth inhibition, 48 h

INSERT INTO assay_data (compound, quantity, value_observed) VALUES
  ('COc1ccc(Cn2c(N)c(S(=O)(=O)c3ccc(Cl)cc3)c3nc(C#N)c(C#N)nc32)cc1', 'GI50', '10.8 µM'),
  ('CN1CC[C@@H](c2c(O)cc(O)c3c(=O)cc(-c4ccc(C(F)(F)F)cc4Cl)oc23)[C@@H]1CO', 'GI50', '26.6 µM'),
  ('COc1ccc(C(O)(CCC(C)C)C(CN2CCOCC2)c2ccc(Cl)cc2)cc1 (stereo not drawn)', 'GI50', '21.8 µM'),
  ('COc1ccc(-c2nsc3c2NC(=O)CC3c2cccc(OC)c2)cc1 (stereo not drawn)', 'GI50', '1.45 µM'),
  ('COc1ccc(-c2cc(/C=C/C(=O)c3ccc(OC)c(OC)c3)[nH]n2)cc1', 'GI50', '5.56 µM'),
  ('BrCc1cccc(C[P+](c2ccccc2)(c2ccccc2)c2ccccc2)c1', 'GI50', '70.1 µM'),
  ('O=C1CCC/C=C\C[C@H]2C=CC(=O)/C2=C/C[C@H](C/C=C\CC(F)(F)F)O1', 'GI50', '0.757 µM'),
  ('CCc1ccc(/C=C/c2ccc(O)c3ncccc23)[n+](C)c1', 'GI50', '26.9 µM'),
  ('COC(=O)c1ccc2c(c1)/C(=C\c1cc(Br)c(O)c(Br)c1)C(=O)N2', 'GI50', '6.57 µM'),
  ('Clc1nc(Cl)nc(Nc2cccc3ccccc23)n1', 'GI50', '> 100 µM');

Lab book: GI50 of Cn1c(=O)c(Oc2ccc(F)cc2)cc2cnc(NC3CCOCC3)nc21 noted as > 25 µM

Reported GI50 for C#Cc1nc(Nc2cc(C)[nH]n2)c2ccccc2n1 was 3.19 µM

Entry O=C1c2cccc3cccc(c23)C(=O)N1CCCCCN1CCN(CCCCCOc2ccc(-c3nc4ccc(N5CCOCC5)cc4[nH]3)cc2)CC1 — recorded GI50 = > 100 µM

---

Measured TGI values are reported for all entries that follow.
# Test system: KM20L2 colon
# protocol_description: NCI tumour cell line growth inhibition, 48 h

Examples with answers:
INSERT INTO measurements (compound, value_observed) VALUES
  ('C=CCC1(CN(C)C)CC/C(=C\c2ccc(Cl)cc2)C1=O (stereo not given)', '> 67.4 µM'),
  ('COc1cc2c3c(c1OC)-c1cc4c(cc1CC3(C#N)N(C(=O)c1ccccc1)CC2)OCO4 (stereo not given)', '> 100 µM'),
  ('O=C(Nc1ccc([N+](=O)[O-])cc1[N+](=O)[O-])C(=O)C(C(=O)c1ccc2ccccc2c1)C1OC(=O)c2ccccc21 (stereo not given)', '61.9 µM'),
  ('COc1cc(/C=C/C(=O)Oc2ccc(NC(C)=O)cc2)ccc1C(=O)O/C=C/c1ccccc1', '> 100 µM');

// switching to the query compound
TGI recorded for this compound, C=CN1C(=O)[C@H](Oc2ccccc2)[C@@H]1c1ccccc1 , is > 100 µM

---

# reported TGI; entries follow
# Test system: 786-0 renal
# protocol_description: NCI tumour cell line growth inhibition, 48 h

Below are worked cases with known answers.
INSERT INTO measurements (molecule, measured_target, value_observed) VALUES
  ('CS/C(=C(\S)c1ccccc1)c1ccccc1', '786-0 renal', '> 100 µM'),
  ('CC1(C)OC[C@@H]([C@H](O)C2C=CC(=O)S2)O1 (some centres not stated)', '786-0 renal', '59.3 µM'),
  ('CC(=O)OCC1OC(OC2CC3C(C)(C)C(O)CC[C@]3(C)C3CCC45CC4(CCC5[C@@H](C)CC(O)C(O)C(C)(C)O)[C@]23C)C(O)C(O)C1O (some centres not stated)', '786-0 renal', '> 10 µM'),
  ('CCOC(=O)c1sc2c(c1OC(=O)c1ccc(OC)cc1)c(=O)n(-c1ccccc1)c(=S)n2-c1ccccc1', '786-0 renal', '> 100 µM');

Sure, the documented TGI for C[N+](C)(C)CC1CCC/C1=N\OC(=O)c1ccccc1 (configuration not stated) is > 100 µM

Record COc1ccc(OC)c(/C=C(/C#N)c2ccccc2)c1 . Reported TGI: > 100 µM

Memo: COC(C)(C)OCCN1CCN(CCN2C3=C(C=C(C(C)=O)C3)Sc3ccccc32)CC1 , reported TGI: 36 µM

---

# Tested on: K-562 leukemia
# protocol_description: NCI tumour cell line growth inhibition, 48 h
This listing pairs molecules with measured TGI.

INSERT INTO assay_data (molecule, measured_target, quantity, value_observed) VALUES
  ('C=CCc1ccc(O)c(-c2ccc(O)c(CC=C)c2)c1', 'K-562 leukemia', 'TGI', '> 46.1 µM'),
  ('CN(C)CCNC(=O)c1cccc2ccc(-c3ccc(F)cc3)nc12', 'K-562 leukemia', 'TGI', '12 µM'),
  ('COc1ccc(/C(=C\C=C(C#N)C#N)Sc2nc3ccccc3s2)cc1', 'K-562 leukemia', 'TGI', '> 50 µM'),
  ('CC(=O)N(C)CCc1c[nH]c2ccccc12', 'K-562 leukemia', 'TGI', '> 100 µM'),
  ('Cc1ccc2c(C3C(C#N)=C(N)Oc4cc5ccccc5cc43)cc(=O)oc2c1 (configuration not stated)', 'K-562 leukemia', 'TGI', '> 100 µM');

Known value: K-562 leukemia TGI of the molecule Cc1cc(C(F)(F)F)cc(-n2nc(NS(=O)(=O)c3cc(C)c(Cl)cc3S)nc2N)n1 equals > 100 µM

TGI value, target or system K-562 leukemia, for CC(=O)OCC1OC(n2c(C)cc(C)c(C#N)c2=S)C(OC(C)=O)C(OC(C)=O)C1OC(C)=O (configuration not stated) : > 100 µM

Measured TGI for this entry CC1=C(/C=C/C(C)=C/C=C/C(C)=C/C(=O)OC2CC(n3cc(F)c(=O)[nH]c3=O)OC2CO)C(C)(C)CCC1 (configuration not stated) on K-562 leukemia: 14 µM

Param item: COC1CCCCN1C(=O)c1ccccc1 (configuration not stated) ; param system: K-562 leukemia; output TGI: > 25.3 µM

Reported TGI (K-562 leukemia) for entry COc1ccc(Cn2c(N)c(S(=O)(=O)c3ccc(Cl)cc3)c3nc(C#N)c(C#N)nc32)cc1 is > 50 µM

GET /values?item= C=CCN(C(=O)CNC(=O)C(F)(F)F)c1cc(OCc2ccccc2)c2c(c1)c(C)cn2S(=O)(=O)c1ccccc1 &system= K-562 leukemia returns TGI: > 100 µM

---

# Test system: KM20L2 colon
# protocol_description: NCI tumour cell line growth inhibition, 48 h
Reported TGI values follow for various molecules

Reference set, count: 9
INSERT INTO results (molecule, quantity, value_observed) VALUES
  ('CCN(CC)CCSc1c2ccccc2nc2c(OC)ccc(OC)c12', 'TGI', '> 21.1 µM'),
  ('O=P1(c2ccccc2)Nc2ccccc2SSc2ccccc2N1', 'TGI', '33.7 µM'),
  ('CC(C)(C)[Si](C)(C)OC1C(=O)C[C@H]2CCCC[C@@H]12 (stereo not given in full)', 'TGI', '> 100 µM'),
  ('CC(C)=CC1CC(=[N+]=[N-])C(=O)C1(C)C (stereo not given)', 'TGI', '> 100 µM'),
  ('O=C1CCC(=O)c2c1c(O)c1ccncc1c2O', 'TGI', '49.8 µM'),
  ('N=C1C(=N)c2ccccc2-c2ccccc21.N=C1C(=N)c2ccccc2-c2ccccc21.N=C1C(=N)c2ccccc2-c2ccccc21.[Cl-].[Ru+2]', 'TGI', '13.2 µM'),
  ('[N-]=[N+]=N/C1=C/CCCCC(=O)C1', 'TGI', '> 100 µM'),
  ('Cc1cccc2c1Sc1ccccc1C2NC(=O)CCN(C)C (stereo not given)', 'TGI', '> 100 µM'),
  ('CN(C)CCNC(=O)c1cccc2c(Nc3ccc(S(=O)(=O)N=C(N)N)cc3)c3ccccc3nc12', 'TGI', '> 100 µM');

Let us move to another entry and its TGI.
Noted TGI for C=COC(=O)N[C@H]1CCc2cc(OC)c(OC)c(OC)c2-c2ccc(SC)c(=O)cc21 , tested on KM20L2 colon: < 0.01 µM
